Reported IC50 values follow for various compounds
Molecular target: CDK2/cyclin A2 (Homo sapiens, UniProt P24941)
Construct: purchased Carna Biosciences, Inc. QS S Assist CDK2/Cyclin A2_FP Kit
Experiment: Human CDK2/cyclin A2 inhibitory activity (QS S Assist CDK2/Cyclin A2_FP Kit, IMAP fluorescence polarization)
Type: biochemical
Conditions: Human CDK2/cyclin A2 inhibitory activity; read-out: CDK2 Activity symbol

| compound | IC50 |
| --- | --- |
| CC(C)Nc1nc(C(F)F)cc2cnc(Nc3ccc(N4CCNCC4)cn3)nc12 | 10 to 100 nM |
| CC(C)Nc1nc(C(F)F)cc2cnc(Nc3ccc(CCC(N)=O)cn3)nc12 | 10 to 100 nM |
| CC(C)Nc1nc([C@H](C)O)c(F)c2cnc(Nc3ccc(N4CCNCC4)cn3)nc12 | ≥ 100 nM |
| CC(=O)c1cc2cnc(Nc3ccc(N4CCNCC4)cn3)nc2c(NC2CCOCC2)n1 | ≥ 100 nM |
| CC(C)Nc1nc([C@@H](C)O)cc2cnc(Nc3ccc(N4CC5(CCNCC5)C4)nn3)nc12 | ≥ 100 nM |
| CC(C)Nc1nc(C(F)F)cc2cnc(Nc3ccc(CC(N)=O)cn3)nc12 | 10 to 100 nM |
| CC(C)Nc1nc([C@@H](C)O)cc2cnc(Nc3ccc(O[C@@H]4CCNC4)cn3)nc12 | ≥ 100 nM |
| CC(C)Nc1nc(C(C)O)cc2cnc(Nc3ccc(N4CCC(N)C4)cn3)nc12 (stereo not drawn) | ≥ 100 nM |
| CC(C)Nc1nc(C(F)F)cc2cnc(Nc3ccc(N)cn3)nc12 | < 10 nM |
| CNc1nc(C(C)O)cc2cnc(Nc3ccc(N4CCNCC4)cn3)nc12 (stereo not drawn) | ≥ 100 nM |
| CC(C)Nc1nc([C@@H](C)O)cc2cnc(Nc3ccc(O[C@@H]4CCNC[C@H]4F)cn3)nc12 | ≥ 100 nM |
| C[C@@H](O)c1cc2cnc(Nc3ccc(N4CCN(C=O)CC4=O)cn3)nc2c(N[C@@H]2CCOC2)n1 | ≥ 100 nM |
| COCC(C)(C)Nc1nc([C@@H](C)O)cc2cnc(Nc3ccc(CC(N)=O)cn3)nc12 | ≥ 100 nM |
| Cc1c([C@@H](C)O)nc(NC(C)C)c2nc(Nc3ccc(N4CCNCC4)cn3)ncc12 | ≥ 100 nM |
| CC(C)Nc1nc(C(F)F)cc2cnc(Nc3ccc(CN4CCCNC4=O)cn3)nc12 | 10 to 100 nM |
| CC(C)Nc1nc(C(F)F)cc2cnc(Nc3ccc(CN4CCC(C(=O)O)C4)cn3)nc12 (stereo not drawn) | 10 to 100 nM |
| CNCC(C)(C)c1ccc(Nc2ncc3cc([C@@H](C)O)nc(NC(C)C)c3n2)nc1 | ≥ 100 nM |
| CC(C)Nc1nc(C(F)F)cc2cnc(Nc3ccc(CNS(C)(=O)=O)cn3)nc12 | ≥ 100 nM |
